Recorded fluorescence lifetime by entry
experiment: solvent given as SMILES; conditions: in ClC(Cl)Cl
REPORTED PROPERTY: fluorescence lifetime (ns)

>  <STRUCTURE NOTATION>
CCCCCCCCN1c2ccc(C#Cc3ccc(OC)cc3)cc2Sc2cc(C=O)ccc21

>  <NUMERIC RESULT>
5.65

$$$$
>  <STRUCTURE NOTATION>
N#CC(C#N)=Cc1ccc(-c2ccc(N(c3ccccc3)c3ccccc3)cc2)o1

>  <NUMERIC RESULT>
2.73

$$$$
>  <STRUCTURE NOTATION>
F[B-]1(F)OC(c2ccc(Br)cc2)=Cc2c3ccccc3c3ccccc3[n+]21

>  <NUMERIC RESULT>
0.436

$$$$
>  <STRUCTURE NOTATION>
CCCCCCCCCCCCOc1cc2c3c(ccc4c5c(OCCCCCCCCCCCC)cc6c7c(ccc(c1c34)c75)C(=O)N(C1CCCCC1)C6=O)C(=O)N(C1CCCCC1)C2=O

>  <NUMERIC RESULT>
5.4

$$$$
>  <STRUCTURE NOTATION>
COc1ccc(N(c2ccc(OC)cc2)c2ccc3ccc4c(B(c5c(C)cc(C)cc5C)c5c(C)cc(C)cc5C)ccc5ccc2c3c54)cc1

>  <NUMERIC RESULT>
8.5

$$$$
>  <STRUCTURE NOTATION>
CC[n+]1c(C=C2C(=O)C(C=C3N(C)c4ccc(Cl)cc4C3(C)C)=C2[O-])sc2ccccc21

>  <NUMERIC RESULT>
1.65

$$$$
>  <STRUCTURE NOTATION>
CN(C)c1ccc(C#Cc2ccc(C#Cc3ccc(C#Cc4ccccc4C#N)cc3C#N)cc2C#N)cc1

>  <NUMERIC RESULT>
1.78

$$$$
>  <STRUCTURE NOTATION>
c1ccc(N(c2ccccc2)c2ccc(-c3ccc(-c4ccc(-c5ccc(-c6ccc(N(c7ccccc7)c7ccccc7)cc6)s5)c5nsnc45)s3)cc2)cc1

>  <NUMERIC RESULT>
5.13

$$$$
>  <STRUCTURE NOTATION>
F[B-]1(F)OC(c2ccccc2)=Cc2ccc3ccccc3[n+]21

>  <NUMERIC RESULT>
1.29

$$$$
>  <STRUCTURE NOTATION>
Cc1ccc(-c2cc(-c3ccccc3)c3c(N)nc(N4CCCC4)c(C#N)c3n2)cc1

>  <NUMERIC RESULT>
13.1

$$$$
>  <STRUCTURE NOTATION>
CN(C)c1ccc(/C=C/c2ccc(-c3nc(C#N)c(C#N)n3C)cc2)cc1

>  <NUMERIC RESULT>
0.7

$$$$
>  <STRUCTURE NOTATION>
CC(C)(C)NC(=O)c1c([Si](C)(C)C)cc2ccc3cccc4ccc1c2c34

>  <NUMERIC RESULT>
6.53

$$$$
>  <STRUCTURE NOTATION>
C(#Cc1ccc(C#Cc2ccccc2)cc1)c1ccccc1

>  <NUMERIC RESULT>
2.57

$$$$
>  <STRUCTURE NOTATION>
O=C1c2ccccc2-c2ccc(N3CCN(c4ccccc4)CC3)c3cccc1c23

>  <NUMERIC RESULT>
8.88

$$$$
>  <STRUCTURE NOTATION>
CC1(C)C(/C=C/C2=C(c3ccc(C(=O)O)cc3)C(=C/C=C3/N(CCCCS(=O)(=O)[O-])c4ccc5ccccc5c4C3(C)C)/CCC2)=[N+](CCCCS(=O)(=O)[O-])c2ccc3ccccc3c21

>  <NUMERIC RESULT>
1.62

$$$$
>  <STRUCTURE NOTATION>
C[Si](C)(C)C#CC(C#C[Si](C)(C)C)=Cc1ccc(C=C(C#C[Si](C)(C)C)C#C[Si](C)(C)C)cc1

>  <NUMERIC RESULT>
0.6

$$$$
>  <STRUCTURE NOTATION>
COc1cc(OC)c2c(c1)c1cc3oc(=O)cc(C)c3cc1c1cc(OC)cc(OC)c12

>  <NUMERIC RESULT>
7.5

$$$$
>  <STRUCTURE NOTATION>
COc1cc2c(cc1-c1ccccc1)Cc1c3c(c4c(c1-2)-c1cc(OC)c(-c2ccccc2)cc1C4)C(=O)N(CCC(C)C)C3=O

>  <NUMERIC RESULT>
5.95

$$$$
>  <STRUCTURE NOTATION>
CCN(CC)c1ccc2cc(-c3ccc(-c4c5ccccc5c(-c5ccc(-c6cc7ccc(N(CC)CC)cc7oc6=O)cc5)c5ccccc45)cc3)c(=O)oc2c1

>  <NUMERIC RESULT>
8.9

$$$$
>  <STRUCTURE NOTATION>
CCCCCCCCOc1ccc2c3cccc4c(OCCCCCCCC)ccc(c5cccc1c52)c43

>  <NUMERIC RESULT>
3.77

$$$$
>  <STRUCTURE NOTATION>
COc1ccc(-c2ccc(-c3ccc(C#N)s3)s2)cc1

>  <NUMERIC RESULT>
0.6

$$$$
>  <STRUCTURE NOTATION>
CN(C)c1ccc(/C=C/c2nc3c4ccccc4c4ccccc4c3[nH]2)cc1

>  <NUMERIC RESULT>
0.138

$$$$
>  <STRUCTURE NOTATION>
Cc1ccc(-c2cc(-c3ccccc3Cl)c3c(N)nc(N4CCCC4)c(C#N)c3n2)cc1

>  <NUMERIC RESULT>
13.7

$$$$
>  <STRUCTURE NOTATION>
CN1CCN(c2ccc3c4c(cccc24)C(=O)c2ccccc2-3)CC1

>  <NUMERIC RESULT>
10.4

$$$$
>  <STRUCTURE NOTATION>
COc1cc(N(c2ccccc2)c2ccc(C=C(C#N)C#N)c(OC)c2)ccc1C=C(C#N)C#N

>  <NUMERIC RESULT>
0.23

$$$$
>  <STRUCTURE NOTATION>
COc1cc(-c2cc(-c3ccc(C)cc3)nc3c(C#N)c(N4CCCC4)nc(N)c23)cc(OC)c1OC

>  <NUMERIC RESULT>
12.8

$$$$

###

assay: solvent given as SMILES; details: in CO
Note to self: values exactly at 0.7 ns are Y. So fluorescence lifetime at or above 0.7 ns is Y, below is N.

>  <COMPOUND>
CCN1C(=CC2=C([O-])C(=Cc3[se]c4ccccc4[n+]3CC)C2=O)[Se]c2ccccc21

>  <CAT>
Y

$$$$
>  <COMPOUND>
COc1ccc(C(=O)NN2C3=C(CC4=C2CCCC4=O)C(=O)CCC3)cc1

>  <CAT>
Y

$$$$
>  <COMPOUND>
CC[n+]1c(C=C2C(=O)C(C=C3N(C)c4ccc(Cl)cc4C3(C)C)=C2[O-])sc2ccccc21

>  <CAT>
N

$$$$
>  <COMPOUND>
CCOC(=O)CCCCCn1c2ccc(Cl)cc2c(=O)c2cc3c(cc21)c(=O)c1cc(Cl)ccc1n3CCCCCC(=O)OCC

>  <CAT>
Y

$$$$
>  <COMPOUND>
c1coc(-c2nc3ccccc3[nH]2)c1

>  <CAT>
Y

$$$$
>  <COMPOUND>
O=P1(c2ccccc2)C(c2cc(C(F)(F)F)cc(C(F)(F)F)c2)=Cc2c3ccc4cccc5ccc(c6cc(-c7ccccc7)n1c26)c3c45 (centres undefined)

>  <CAT>
Y

$$$$
>  <COMPOUND>
CC(C)(C)NC1=C2C=CC=[N+]2[B-](F)(F)n2cccc21

>  <CAT>
N

$$$$
>  <COMPOUND>
CCOC(=O)C(C(=O)OCC)C1=[N+]2C(=C(c3ccc(C)cc3)c3ccc(Cl)n3[B-]2(F)F)C=C1

>  <CAT>
Y

$$$$
>  <COMPOUND>
Cc1ccc(-c2ccc(/C=C/c3cccn3C)cn2)nc1

>  <CAT>
Y

$$$$
>  <COMPOUND>
NCCc1c[nH]c2ccc(O)cc12

>  <CAT>
Y

$$$$
>  <COMPOUND>
CC1(C)C(/C=C/C2=C(Oc3ccc(CCN=C=S)cc3F)C(=C/C=C3/N(CCCS(=O)(=O)[O-])c4ccccc4C3(C)C)/CCC2)=[N+](CCCS(=O)(=O)[O-])c2ccccc21

>  <CAT>
Y

$$$$
>  <COMPOUND>
CCN(CC)c1ccc(C=Cc2nc3nc4ccccc4nc3s2)c(OC)c1

>  <CAT>
N

$$$$

###

test: solvent given as SMILES; details: in CCCCO
Recorded log10 of fluorescence lifetime by entry
REPORTED PROPERTY: log10 of fluorescence lifetime (log10 of the value in ns)

>  <COMPOUND>
O=C(O)c1c2ccccc2nc2ccccc12

>  <log10 of fluorescence lifetime>
-0.10

$$$$
>  <COMPOUND>
O=C(O)COc1ccc2[nH]c3c(c2c1)CCCC3=O

>  <log10 of fluorescence lifetime>
0.05

$$$$
>  <COMPOUND>
C#CCNC1=C2C=CC=[N+]2[B-](F)(F)n2cccc21

>  <log10 of fluorescence lifetime>
0.78

$$$$
>  <COMPOUND>
COc1cccc2c1C(=O)c1ccccc1-2

>  <log10 of fluorescence lifetime>
0.86

$$$$
>  <COMPOUND>
COc1ccc(-c2ccc(-c3ccc(C#N)s3)s2)cc1

>  <log10 of fluorescence lifetime>
-0.04

$$$$
>  <COMPOUND>
C#CCN1C(=O)/C(=C/c2cc(OC(C)C)ccc2OC(C)C)N=C1C

>  <log10 of fluorescence lifetime>
-0.09

$$$$
>  <COMPOUND>
COc1ccc2c(=O)c3c([nH]c2c1)-c1cc(Cl)ccc1NC3(C)C

>  <log10 of fluorescence lifetime>
1.00

$$$$
>  <COMPOUND>
CCCCCCC(CCCCCC)N1C(=O)c2cccc3c(-c4ccc(OC)c5ccccc45)ccc(c23)C1=O

>  <log10 of fluorescence lifetime>
0.26

$$$$
>  <COMPOUND>
CCCCCCC(CCCCCC)N1C(=O)c2cccc3c(-c4ccc(N(C)C)cc4)ccc(c23)C1=O

>  <log10 of fluorescence lifetime>
0.54

$$$$
>  <COMPOUND>
CN1CCN(c2ccc3c4c(cccc24)C(=O)c2ccccc2-3)CC1

>  <log10 of fluorescence lifetime>
0.70

$$$$
>  <COMPOUND>
CC\C=C/C=C/C=C/C=C\CCCCCCCC(=O)O

>  <log10 of fluorescence lifetime>
0.40

$$$$
>  <COMPOUND>
Cc1cc(=O)c2ccc(N)cc2o1

>  <log10 of fluorescence lifetime>
0.60

$$$$
>  <COMPOUND>
O=C1c2ccccc2-c2ccc(N3CCN(c4ccccc4)CC3)c3cccc1c23

>  <log10 of fluorescence lifetime>
-0.80

$$$$
>  <COMPOUND>
O=C([O-])c1ccccc1C1=c2cc3c4c(c2Oc2c1cc1c5c2CCCN5CCC1)CCC[N+]=4CCC3

>  <log10 of fluorescence lifetime>
0.63

$$$$
>  <COMPOUND>
CCCCCCC(CCCCCC)N1C(=O)c2cccc3c(-c4ccc(C#N)cc4)ccc(c23)C1=O

>  <log10 of fluorescence lifetime>
0.34

$$$$
>  <COMPOUND>
COc1c2ccccc2c(-c2ccccc2)c2ccccc12

>  <log10 of fluorescence lifetime>
0.57

$$$$
>  <COMPOUND>
COC(=O)C(Cc1ccc2oc(-c3ccc(-n4c5ccccc5c5ccccc54)cc3)nc2c1)NC(=O)OC(C)(C)C (centres undefined)

>  <log10 of fluorescence lifetime>
0.66

$$$$
>  <COMPOUND>
CCN(CC)c1ccc2nc3c4ccccc4c(=O)cc-3oc2c1

>  <log10 of fluorescence lifetime>
0.59

$$$$
>  <COMPOUND>
CCNc1cc2oc3c/c(=[NH+]\CC)c(C)cc-3c(-c3ccccc3C(=O)OCC)c2cc1C

>  <log10 of fluorescence lifetime>
0.59

$$$$

src = the Deep4Chem optical property database
